- tgt: NSP14 (Severe acute respiratory syndrome coronavirus 2, UniProt P0DTD1)
- assay procedure: NSP14 MTase inhibition assay at 37° C. (MTase-Glo SAH detection)
- Assay type: biochemical, SARS-CoV-2
- experimental setup: 37° C., 0.3 nM NSP14, 2.5 μM SAM, 2.5 μM GpppA RNA; read-out: Nsp14 Mtase Inh. IC50
IC50 under 10 nM gets TRUE, anything at or over 10 nM gets FALSE.

Solved cases (10 shown):
>>> qualitative_label("Cc1c(S(=O)(=O)c2ccc3[nH]nc(C#N)c3c2)cc(C(=O)NCc2cccc3cnn(C)c23)n1C [B.29]")
"FALSE"
>>> qualitative_label("Cc1c(S(=O)(=O)c2ccc3[nH]ncc3c2)cc(C(=O)NCc2c(F)cc(F)cc2F)n1C [B.86]")
"TRUE"
>>> qualitative_label("Cc1c(S(=O)(=O)c2ccc3[nH]ncc3c2)cc(C(=O)NCc2cc(F)cc3cnn(C)c23)n1C [B.96]")
"TRUE"
>>> qualitative_label("Cc1c(S(=O)(=O)c2ccc3[nH]ncc3c2)cc(C(=O)NCc2ccc(=O)[nH]c2)n1C [B.104]")
"FALSE"
>>> qualitative_label("Cc1c(S(=O)(=O)c2ccc3[nH]ncc3c2)cc(C(=O)NCc2c(F)ccc(OCc3ccc(C(=O)O)cc3)c2F)n1C [B.123]")
"TRUE"
>>> qualitative_label("Cc1c(S(=O)(=O)c2ccc3[nH]nc(F)c3c2)cc(C(=O)NCc2c(F)ccc3cnn(C4CC4)c23)n1C [B.46]")
"TRUE"
>>> qualitative_label("Cc1c(S(=O)(=O)c2ccc3[nH]ncc3c2)cc(C(=O)NCc2c(F)cc(CCN(C)C)cc2F)n1C [B.114]")
"FALSE"
>>> qualitative_label("Cc1c(S(=O)(=O)c2ccc3[nH]ncc3c2)cc(C(=O)NCc2ccnn2C(F)F)n1C [B.165]")
"FALSE"
>>> qualitative_label("Cc1c(S(=O)(=O)c2ccc3[nH]ncc3c2)cc(C(=O)NCc2ccccc2C#N)n1C [B.101]")
"FALSE"
>>> qualitative_label("Cc1c(S(=O)(=O)c2ccc3[nH]ncc3c2)cc(C(=O)N[C@H]2Cc3ccccc32)n1C (single isomer, unassigned) [B.171]")
"TRUE"

Task: Just wondering, is IC50 of Cc1c(S(=O)(=O)c2ccc3[nH]ncc3c2)cc(C(=O)NCc2c(F)ccn(C)c2=O)n1C [B.181] below 10 nM?
Result: TRUE

Task: Record Cc1c(S(=O)(=O)c2ccc3[nH]nc(F)c3c2)cc(C(=O)NCc2ccccc2N2CCC(F)(F)C2)n1C [B.39] : is its IC50 strictly below 10 nM?
Result: TRUE

Task: IC50 under 10 nM? Item: Cc1c(S(=O)(=O)c2cnc3[nH]ncc3c2)cc(C(=O)NCc2cccc3cnn(C)c23)n1C [B.30]
Result: TRUE

Task: Given the entry Cc1c(S(=O)(=O)c2ccc3[nH]ncc3c2)cc(C(=O)NCc2ccnn2CC(F)F)n1C [B.162] , would its reported IC50 be below 10 nM?
Result: TRUE

Task: Below 10 nM on IC50? Entry Cc1c(S(=O)(=O)c2cc(F)c3[nH]ncc3c2)cc(C(=O)NCc2ncccc2F)n1C [B.58]
Result: TRUE

Task: Is the reported IC50 for COCc1cc(S(=O)(=O)c2cc(C(=O)NCc3cccc4cnn(C5CC5)c34)n(C)c2C)cc2cn[nH]c12 [B.93] strictly below 10 nM?
Result: FALSE

* * *

Task for the reader: assign each of the following molecules its reported pIC50.
- tgt: NSP14 (Severe acute respiratory syndrome coronavirus 2)
- assay procedure: NSP14 MTase inhibition assay at 37° C. (MTase-Glo SAH detection)
- Assay type: biochemical, SARS-CoV-2
- experimental setup: 0.3 nM NSP14, 2.5 μM SAM, 2.5 μM GpppA RNA, 45 min at 37° C.; read-out: Nsp14 Mtase Inh. IC50
Numbers only, as −log10 of the molar value.

A selection of reference data follows.
>>> test_result("Cc1nc(N2CC[C@@H](NC(=O)c3cc(S(=O)(=O)c4ccc5[nH]ncc5c4)c(C)n3C)C2)nc(C)c1F [A.75]")
9.29
>>> test_result("Cc1c(S(=O)(=O)c2ccc3[nH]ncc3c2)cc(C(=O)N[C@@H]2CCN(c3ncccc3F)C2)n1C [A.43]")
9.38
>>> test_result("COc1ccc(S(=O)(=O)c2cc(C(=O)NCc3cccc4cnn(C)c34)n(C)c2C)cn1 [A.28]")
6.92

Answer for every listed entry: what is its pIC50? The entries follow.
1. Cc1c(S(=O)(=O)c2ccc(Cl)cc2)cc(C(=O)NCc2cccc3cnn(C)c23)n1C [A.11]
2. Cc1c(S(=O)(=O)c2ccc3[nH]ncc3c2)cc(C(=O)N[C@H]2C[C@@H](N(C)c3ncc(F)cn3)C2)n1C [A.98]
3. Cc1c(S(=O)(=O)c2ccc3[nH]ncc3c2)cc(C(=O)NCc2cccc3cnn(C)c23)n1C [A.3]
4. Cc1c(S(=O)(=O)c2ccc3[nH]ncc3c2)cc(C(=O)N[C@@H]2CCN(c3cccc(F)c3)C2)n1C [A.87]
5. Cc1c(S(=O)(=O)c2ccc3[nH]ncc3c2)cc(C(=O)N[C@@H]2CCN(c3cnccn3)C2)n1C [A.71]
6. Cc1c(S(=O)(=O)c2ccc3c(cnn3C)c2)cc(C(=O)NCc2cccc3cnn(C)c23)n1C [A.12]
7. Cc1c(S(=O)(=O)c2ccc3[nH]ncc3c2)cc(C(=O)N[C@@H]2CCN(c3ncccn3)C2)n1C [A.64]

Result:
8.28
9.41
9.46
9.12
9.26
8.25
9.11

* * *

- tgt: UniProt:P0DTD1
- assay procedure: NSP14 MTase inhibition assay at 37° C. (MTase-Glo SAH detection)
- Format: biochemical, SARS-CoV-2
- experimental setup: 37° C., 0.3 nM NSP14, 2.5 μM SAM, 2.5 μM GpppA RNA; read-out: Nsp14 Mtase Inh. IC50
Consider the following compounds; for each one, report its log10(IC50).
Scale type: logarithmic (base 10). Underlying IC50 unit: nM.

For orientation, consider the following solved cases.
>>> test_result("Cc1c(S(=O)(=O)c2ccc3[nH]ncc3c2)cc(C(=O)N[C@H]2Cc3ccccc32)n1C (single isomer, unassigned) [B.170]")
0.40
>>> test_result("Cc1c(S(=O)(=O)c2ccc3[nH]ncc3c2)cc(C(=O)NC2Cc3ccccc32)n1C (stereo not shown)")
0.08
>>> test_result("Cc1c(S(=O)(=O)c2ccc3[nH]ncc3c2)cc(C(=O)NCc2[nH]c(=O)ccc2Cl)n1C")
0.52

State the recorded log10(IC50) for every item in the following list.
1. Cc1c(S(=O)(=O)c2cc(Cl)c3[nH]ncc3c2)cc(C(=O)NS(=O)(=NCC(F)(F)F)c2ccccc2)n1C (stereo not shown)
2. Cc1c(S(=O)(=O)c2cc(Cl)c3[nH]ncc3c2)cc(C(=O)NCc2c(F)ccc3cnn(C4CC4)c23)n1C

Result:
1: 1.08; 2: -0.77

* * *

Can you tell me pIC50 for the items I'm about to list?
- tgt: UniProtKB P0DTD1
- assay procedure: NSP14 MTase inhibition assay at 37° C. (MTase-Glo SAH detection)
- Assay type: biochemical, SARS-CoV-2
- experimental setup: 37° C., 0.3 nM NSP14, 2.5 μM SAM, 2.5 μM GpppA RNA; read-out: Nsp14 Mtase Inh. IC50
Answers are plain numbers, as −log10 of the molar value.

>>> test_result("Cc1c(S(=O)(=O)c2ccc3[nH]ncc3c2)cc(C(=O)NCc2c(Cl)cnn2C)n1CC(F)(F)F")
8.41
>>> test_result("Cc1cc(S(=O)(=O)c2cc(C(=O)NCc3c(F)ccnc3N3CCC(C)(C(=O)O)C3)n(C)c2C)cc2cnn(C)c12 (racemic)")
9.24
>>> test_result("Cc1c(S(=O)(=O)c2ccc3[nH]ncc3c2)cc(C(=O)NCc2ccc(N(C)C)nn2)n1C")
6.94
>>> test_result("Cc1c(S(=O)(=O)c2cc(CO)c3[nH]ncc3c2)cc(C(=O)NCc2cccc3cnn(C4CC4)c23)n1C")
8.40
>>> test_result("Cc1c(S(=O)(=O)c2ccc3[nH]ncc3c2)cc(C(=O)NCc2c(F)cnn2C)n1C")
9.25

For every item below, please supply its pIC50.
1. Cc1c(S(=O)(=O)c2ccc3[nH]nc(F)c3c2)cc(C(=O)NCc2c[nH]c(=O)c3ccccc23)n1C
2. Cc1c(S(=O)(=O)c2ccc3[nH]ncc3c2)cc(C(=O)NCc2ccccc2F)n1C

Result:
1: 8.66; 2: 8.80

* * *

- tgt: NSP14 (Severe acute respiratory syndrome coronavirus 2)
- assay procedure: NSP14 MTase inhibition assay at 37° C. (MTase-Glo SAH detection)
- Format: biochemical, SARS-CoV-2
- experimental setup: 37° C., 0.3 nM NSP14, 2.5 μM SAM, 2.5 μM GpppA RNA; read-out: Nsp14 Mtase Inh. IC50
reported endpoint: pIC50
One number for each entry, as −log10 of the molar value.

>>> test_result("Cc1c(S(=O)(=O)c2ccc3[nH]ncc3c2)cc(C(=O)NC2CCc3cc(C#N)ccc32)n1C (stereo not shown)")
8.64
>>> test_result("Cc1c(S(=O)(=O)c2cc(F)c3[nH]ncc3c2)cc(C(=O)NCc2cccc3cnn(C)c23)n1C")
9.28
>>> test_result("Cc1c(S(=O)(=O)c2ccc3[nH]ncc3c2)cc(C(=O)NCc2cccn3ncnc23)n1C")
8.13
>>> test_result("Cc1c(S(=O)(=O)c2ccc3[nH]nc(F)c3c2)cc(C(=O)NC2CCc3c2ccc(=O)n3C)n1C (racemic)")
7.68
>>> test_result("Cc1c(S(=O)(=O)c2cc(Cl)c3[nH]ncc3c2)cc(C(=O)NCc2ccnn2C)n1C")
9.74

Now look at this entry.
For Cc1c(S(=O)(=O)c2cc(F)c3[nH]ncc3c2)cc(C(=O)N[C@@H](C)c2cccc3cnn(C4CC4)c23)n1C (single isomer, unassigned) [B.87] the compound record lists pIC50 as 9.09

Origin of the recorded values: patent US20260226034A1
